List of abundance fitness values.
B1: Far upstream element-binding protein 1, residues 184 to 257; numbered along this chain, Q96AE4 (parent)
chain: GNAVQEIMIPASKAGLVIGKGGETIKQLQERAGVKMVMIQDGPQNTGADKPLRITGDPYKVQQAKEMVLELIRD

# Variants of: B1
# protocol_notes: abundance fitness (aPCA) (normalised: wild type 0, dead -1); higher = more abundant; growth selection in yeast, the domain comes from the species named
# run_conditions: Homo sapiens
Enter the number alone.

>  <sequence_data>
GNAVQEIMIPASKAGLVIGKGGETIKQLQERAGVKMVMIIDGPQNTGADKPLRITGDPYKVQQAKEMVLELIRD [Q40I]

>  <abundance fitness>
-0.147

$$$$
>  <sequence_data>
GNAVQEIMIPASKAGLVIGKGGETIKQLQERPGVKMVMIQDGPQNTGADKPLRITGDPYKVQQAKEMVLELIRD [A32P]

>  <abundance fitness>
-0.706

$$$$
>  <sequence_data>
GNAVQEIMIPASKAGLVIGKGGETIKQLQERAGVRMVMIQDGPQNTGADKPLRITGDPYKVQQAKEMVLELIRD [K35R]

>  <abundance fitness>
-0.007

$$$$

# evaluate next
(Q) Please report the recorded abundance fitness for GNAVQEIMIPASKAGLVIGKGGETIKQLQERAGVKMVMIQDGPQNTGADKPLRITGDPYKVQQAHEMVLELIRD [K65H] .
(A) -0.056
